The measurements presented in this section are drawn from patent US20260125382A1.

Target: CDK2 (Homo sapiens, UniProt P24941)
Construct: endogenous in cells; host or cells: MDA-MB-231
Assay: CDK protein degradation activity (Western blotting), CDK2
Type: cell-based
Conditions: MDA-MB-231 cells, 0.1 μM, 16 hours, Western blot
Endpoint Name: Enzyme degradation CDK2 (% remaining) @ 0.1 μM

QUERY: Suppose we examine the compound O=C1CC[C@H](N2C(=O)c3cc(F)c(N4CCC(C(=O)N5CCC(CCN6CCN(c7ccc(Nc8ncnc9c8ncn9[C@H]8C[C@@H](NC(=O)Cc9ccccc9)C8)cc7)CC6)CC5)CC4)cc3C2=O)C(=O)N1 ; what Enzyme degradation CDK2 (% remaining) @ 0.1 μM value has been reported?
RESULT: 80%

QUERY: Suppose we examine the compound Cc1cccc(C(=O)NC2CC(n3cnc4c(Nc5ccc(N6CCN(CCC7CCN(c8cc9c(cc8F)C(=O)N([C@H]8CCC(=O)NC8=O)C9=O)CC7)CC6)cc5)ncnc43)C2)n1 (stereo partly shown) ; what Enzyme degradation CDK2 (% remaining) @ 0.1 μM value has been reported?
RESULT: 30%

QUERY: Suppose we examine the compound O=C1CC[C@H](N2C(=O)c3ccc(NCC(=O)N4CCC5(CC4)CC(N4CCN(c6ccc(Nc7ncnc8c7ncn8[C@H]7C[C@@H](NC(=O)Cc8ccccc8)C7)cc6)CC4)C5)cc3C2=O)C(=O)N1 ; what Enzyme degradation CDK2 (% remaining) @ 0.1 μM value has been reported?
RESULT: 50%
